target: T1, PSMA Fab (006 PSMA Fab) (biotinylated (site not stated)); assay: clonal phage ELISA on biotinylated PSMA Fab captured on neutravidin, anti-M13 HRP detection, competitor PSMA antigen
T1 construct: also called Anti-PSMA Fab
Where no end group is shown, it is not given here.
readoutLabel: Phage binding ELISA signal, Anti-PSMA Fab with PSMA antigen

>  <binder>
FPHMCKPEWMCAGF (cysteine pairing not given here; also: peptide displayed as fusion to phage pIII) [Phage-2948]

>  <measValue>
0.0876

$$$$
>  <binder>
WEQRCVPEWMCVGF [Phage-2960]

>  <measValue>
0.0987

$$$$
>  <binder>
SSPICKPMWMCTGF [Phage-2950]

>  <measValue>
0.0918

$$$$
>  <binder>
TLMRCEPSWMCQGF [Phage-2954]

>  <measValue>
0.0698

$$$$
>  <binder>
ENIMCEPMWMCIGF [Phage-2951]

>  <measValue>
0.0839

$$$$
>  <binder>
EQPLCTPQWMCWGF [Phage-2958]

>  <measValue>
0.0972

$$$$
>  <binder>
WDHLCKPDWMCLGF [Phage-2949]

>  <measValue>
0.0766

$$$$
